tested on: GST-tagged Cn; assay: PEPperPRINT peptide microarray binding assay with GST-tagged Cn; conditions: GST-tagged Cn, max over the chip spots listed under Location on chip

sequenceEntry	Chip Fluorescence (max)
PENKFQPFAIKLCVKG [Seqshuffled_5021]	0.8772
QYAYNSQMMGITTQLQ [Seqshuffled_9335]	0.8878
QTEDQPGIIVHTAMLP [SeqRCN1_Bactrocera_dorsalis]	0.5479
GLLNVYKKTRITYDNL [Seqrandom_1974]	0.9025
HVSSSPDVTLTPTQHR [SeqRBMlowT_4550]	0.8955

* * *

tested on: GST-tagged Cn; assay: PEPperPRINT peptide microarray binding assay with GST-tagged Cn; conditions: GST-tagged Cn, mean over the spots named in Location on chip
# Chip Fluorescence (mean) per record follows

sequenceEntry	Chip Fluorescence (mean)
ATSGTFPQTEGSHKKQ [SeqRBMlowT_5854]	-0.4136
LKDEIPEVRLNIISSL [SeqRBMlowT_1013]	0.5558
PALESPRIEITSCLGL [SeqNFATC1_Homo_sapiens]	0.3949
TPVSDHNFALDVSGKP [Seqshuffled_9616]	0.06645
TFHLNPQYRITLEDPD [SeqCAPN11_Daphnia_magna_3]	0.6671
ADEANPEITITPAELP [SeqRBMlowT_369]	0.5736
GGPGTPGRQGQPLAPS [SeqRBMlowT_7795]	-0.6767
TFWSNPQFKIKLEDPD [SeqRBMlowT_7428]	0.3282
TFWTNPQYRVHVCDPD [SeqRBMlowT_293]	-0.7162
ADEAQPGIVVHVCELP [SeqRBMlowT_119]	-0.1242
KRYWKPQFKFGTQVSE [SeqRBM_7919]	-0.01942
TFWTNPQYVITLEEPD [SeqRBMlowT_2279]	0.5155
SAGAGVGIVITVTEAE [SeqRBMlowT_164]	-0.8688
RAYINPFMQFQDGGQR [SeqRBMlowT_1515]	-0.1627
MLSIRPSARLKIPQHR [SeqRBM_1889]	-0.6579
KSKAAPSIVIHIPEEA [SeqRBM_8661]	0.2601
TFWMNPQFKVKLEEVD [SeqRBMlowT_6848]	1.054
GGESQPGIVVHVCEED [SeqRBMlowT_2505]	0.4381
RNPGQALLTLRGHSKQ [SeqRBMlowT_6189]	0.3772
SSMAPPAINIDFAPTN [SeqRBMlowT_1806]	0.3806

* * *

test system: GST-tagged Cn; experiment: PEPperPRINT peptide microarray binding assay with GST-tagged Cn; conditions: max over the spots listed under Location on chip

sequenceEntry	Chip Fluorescence (max)
PSLYENALGIESFTLS [SeqRBMlowT_6913]	2.963
TFWTNPQIKLSLTEKD [SeqCAPN11_Camelus_ferus]	3.072
GELAIKNMKPWDVGGY [SeqRBM_3830]	3.053
RNPESPSLFLEGHLSR [SeqRBMlowT_8778]	3.012
RTPGTFLLTLRGHKKQ [SeqRBMlowT_7783]	2.997

* * *

# Chip Fluorescence (max) per record follows
tested on: GST-tagged Cn; assay: PEPperPRINT peptide microarray binding assay with GST-tagged Cn; details: max over the spots listed under Location on chip
readoutLabel: Chip Fluorescence (max)

sequenceEntry	result
SPSNPPEIIISSREDN [SeqKCNN2_Mus_musculus]	3.195
TFWTNPQFKVSLEEED [SeqRBMlowT_1125]	2.918
RNPGTFPLELEGHKKQ [SeqRBMlowT_8768]	3.224
PSDDQPGIIVHPAEED [SeqRBMlowT_1217]	2.878
KAYMCPFMQFIDGGRK [SeqRBMlowT_522]	2.8656
RNPGTAPLTLKGHKKQ [SeqRBMlowT_6124]	2.7668
VETIRPGVVTEPMEAG [SeqRBM_4600]	3.238
DSSANPEITITPAELP [SeqRBMlowT_4460]	2.624
TFWTNPQFVITLEEVD [SeqRBMlowT_928]	3.091
VALVIRSTDKDDVGNY [SeqCEACAM5_Bactrocera_latifrons]	3.268
TFWTNPQYRITVTDAD [SeqRBMlowT_620]	2.815
RQPGQALLTLRGHSKS [SeqRBMlowT_7741]	2.813
ADEAVPEITITPAELP [SeqRBMlowT_1267]	2.637
TFWMNPQFKINLEEED [SeqCAPN11_Salmo_salar]	3.077
TFWTNPQFNVTLSEAD [SeqRBM_9395]	2.777
TFWTNPQYRIKLEEAD [SeqRBMlowT_241]	3.006
VYWSNPQFIVKLEMVD [SeqRBM_6287]	2.588
FETSHPTVQLKIPQLR [SeqLCORL_Pteropus_alecto]	2.606
VNLPIPAVQLADSGAY [SeqRBM_1417]	2.788
TFWTNPQYTITLEEVD [SeqRBMlowT_678]	2.849
TFWTNPQYRLKVTDPD [SeqRBMlowT_5581]	3.3

* * *

Test system: GST-tagged Cn
Experiment: PEPperPRINT peptide microarray binding assay with GST-tagged Cn
Settings: GST-tagged Cn, max over the chip locations
Excerpt: We then estimated in-silico the binding strength of the various peptides to Cn by template-based docking followed by flexible backbone refinement using Modeller and PepCrawler (Figs 4 and S4). […] Fig 4 Medium-throughput filtering by structural modeling and microarray screening. […] (f) Scatter plot of the sequence likelihood (normalized by length, higher is better) against fluorescence level (higher is better, see Methods for details of the data analysis). […]
readoutLabel: Chip Fluorescence (max)

sequenceEntry	readoutLabel	numericResult
LSDNRPNVRMEAPMVQ [SeqRBM_9917]	Chip Fluorescence (max)	0.09814
HSKLIPKLSIQSPVHH [SeqRBMlowT_822]	Chip Fluorescence (max)	0.1809
HSKSIPKFSFQSPVHH [SeqRBMlowT_1680]	Chip Fluorescence (max)	0.06895
HSKLIPKLSFQSPVHH [SeqRBMlowT_814]	Chip Fluorescence (max)	-0.8035
NSSGAPQFQINVLMGE [SeqRBM_9653]	Chip Fluorescence (max)	-0.2717
LAFALPAFSFAAMKSA [SeqRBM_4599]	Chip Fluorescence (max)	-0.5301
ATSGTFPQTDGSHKKQ [SeqRBMlowT_7701]	Chip Fluorescence (max)	-0.3986
TFWTNPQYRITVTDPD [SeqRBMlowT_65]	Chip Fluorescence (max)	0.2441
PSSCTPHLYARVHKGQ [SeqRBM_1451]	Chip Fluorescence (max)	0.2872
HVSSSPDITVTPTQHR [SeqRBMlowT_701]	Chip Fluorescence (max)	0.2772
TEWNNPQQIVGPTEGD [SeqRBM_3582]	Chip Fluorescence (max)	0.1516
ASTSTFPQQQTAHKKQ [SeqBOI2_Podospora_anserina]	Chip Fluorescence (max)	-0.0111

* * *

# Chip Fluorescence (max) per record follows
test system: GST-tagged Cn; experiment: PEPperPRINT peptide microarray binding assay with GST-tagged Cn; conditions: max over the spots listed under Location on chip
readoutLabel: Chip Fluorescence (max)

sequenceEntry	readoutLabel	result
TFWTNPQFKITLEEPD [SeqRBMlowT_951]	Chip Fluorescence (max)	2.6
TFWTNPQFRITVTDPD [SeqRBMlowT_669]	Chip Fluorescence (max)	2.934
ASDDIPTVVIHPPEED [SeqSLC4A7_Pan_troglodytes]	Chip Fluorescence (max)	2.587
NICTSLTLVETDPTVY [Seqshuffled_9501]	Chip Fluorescence (max)	2.929
GSPPTPSRSGKPPKPL [SeqRBM_2495]	Chip Fluorescence (max)	3.396
STSSLPTFSFSSPVSH [SeqRBMlowT_1620]	Chip Fluorescence (max)	3.347
ADEAIPEITITPAELP [SeqRBMlowT_424]	Chip Fluorescence (max)	2.999
STKSSGRPSRSPERAS [SeqRGA2_Colletotrichum_sublineola]	Chip Fluorescence (max)	2.848
TFWTNPQYKITLEEED [SeqRBMlowT_3204]	Chip Fluorescence (max)	3.2
TFWTNPQYVITLEDPD [SeqRBMlowT_239]	Chip Fluorescence (max)	3.22
ERWSIGFGDMFCNQFK [Seqrandom_9989]	Chip Fluorescence (max)	2.7221
STAALPKFDFSNPHIS [SeqRBM_9234]	Chip Fluorescence (max)	2.8681
STSSLPTFSFSPPQPT [SeqRBMlowT_3908]	Chip Fluorescence (max)	2.68
SVWENATVRFNFFPDN [Seqshuffled_9917]	Chip Fluorescence (max)	3.124
TFWTNPQFRITLEDPD [SeqRBMlowT_31]	Chip Fluorescence (max)	2.946
LKDQFPKVRLNIIDAP [SeqRBM_543]	Chip Fluorescence (max)	2.925
ASALSPRIEITPSHEL [SeqNFATC1_Alligator_mississippiensis]	Chip Fluorescence (max)	3.085
TFWINPQIVITLADED [SeqRBMlowT_2933]	Chip Fluorescence (max)	2.77
YFFDRDTGAGKIEQEH [Seqrandom_9991]	Chip Fluorescence (max)	2.629
NMGTGVGIVITITEAV [SeqAKAP79_Meleagris_gallopavo]	Chip Fluorescence (max)	2.665
DSLYQEVLGIGSFSLA [SeqCRZ1_Hypocrea_virens]	Chip Fluorescence (max)	2.584
LKDESPEVRLNIISSL [SeqRBMlowT_1855]	Chip Fluorescence (max)	3.106
TFWSNPQYFVTLLESD [SeqRBM_6656]	Chip Fluorescence (max)	3.032
HVSSSPRITITPTQHR [SeqRBMlowT_743]	Chip Fluorescence (max)	2.778
AGCTVNNYSTNFAEND [Seqshuffled_9821]	Chip Fluorescence (max)	2.618
MAGPHPKIVITGPHEE [PKIVIT-containing synthetic peptide]	Chip Fluorescence (max)	2.82
TLWTNPQYHITLPEED [SeqRBM_3002]	Chip Fluorescence (max)	3.2575
LNRIEIFVTFNFTRNS [Seqshuffled_5110]	Chip Fluorescence (max)	3.363
KSKSIPKISIQSPVHH [SeqRBMlowT_1684]	Chip Fluorescence (max)	2.868
TFWTNPQFKITLEELD [SeqRBMlowT_5669]	Chip Fluorescence (max)	2.6605
TFWMNPQFRITLDDPD [SeqRBMlowT_69]	Chip Fluorescence (max)	3.266
KAYMCSFMRFIEGGRR [SeqRBMlowT_3379]	Chip Fluorescence (max)	2.957
AYPGTYYGQDGSHKKQ [SeqRBM_820]	Chip Fluorescence (max)	2.763
NKLKIPHQLSQPINDH [SeqRBM_2163]	Chip Fluorescence (max)	2.778
TFWTNPQFRITLDSPD [SeqRBMlowT_5998]	Chip Fluorescence (max)	2.88
PAGAGVGIVITVTEAE [SeqRBMlowT_166]	Chip Fluorescence (max)	3.117
PSDPQPSIIVHACLED [SeqRBM_9284]	Chip Fluorescence (max)	3.302
TFWTNPQYRLKIPDPD [SeqRBMlowT_280]	Chip Fluorescence (max)	2.677
EDGKVPSIEIDVREYA [SeqRBM_7430]	Chip Fluorescence (max)	2.944
LKDEIPEVRLNIISAL [SeqRBMlowT_1072]	Chip Fluorescence (max)	2.998
NMATVPAVTMGEVART [SeqRBM_5293]	Chip Fluorescence (max)	2.99
TFWTNPQFRITLEEVD [SeqRBMlowT_245]	Chip Fluorescence (max)	2.7449
PGDDQPGIIVHPCEEP [SeqRBMlowT_1949]	Chip Fluorescence (max)	2.883
YRDSWVTACQKIQSKI [Seqrandom_9988]	Chip Fluorescence (max)	3.109
VVMHKMPKTGGWWHCP [Seqrandom_9963]	Chip Fluorescence (max)	2.722
KAYINPSMVFIEGGRR [SeqRBM_7863]	Chip Fluorescence (max)	2.964
STASLPTFSFSPLAPS [SeqRBMlowT_9999]	Chip Fluorescence (max)	2.669
PKMAPPAINIDFAPTN [SeqRBMlowT_1805]	Chip Fluorescence (max)	2.636
HSKSSPKLSISSPVHH [SeqRBMlowT_1628]	Chip Fluorescence (max)	3.1562
